Reference source: PubChem BioAssay AID1159580

- measurement.notes: chemical genetic growth profiling, strain panel (AID 1159580);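 also: tested at 20 µM; growth read once vehicle control cultures reached saturation at 30 °C; 1 = growth at the plate median or of vehicle wells; lower values mean less growth of the strain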
- measurement.parameters: S. cerevisiae deletion strains, growth OD, locus YIL073C, strain SPO22, hits give low values
Among all 5,500 compounds or so, about 2,000 (36%) were called active. About 18% were inconclusive and are not listed. The list shows a part of the results.
Provide the reported normalized growth of each item.
Numbers only.

{"compound": "C[C@]12CCC3c4ccc(O)cc4CCC3C1C[C@@H](O)[C@@H]2O (stereo not given in full)", "normalized growth": 0.991}
{"compound": "COc1ccc(-c2oc3cc(O[C@H]4O[C@H](CO)[C@@H](O)[C@H](O)[C@H]4O)c(OC)c(O)c3c(=O)c2OC)cc1O", "normalized growth": 0.971}
{"compound": "COc1cc(O)c2c(=O)c(O)c(-c3ccc(O)c(O)c3)oc2c1", "normalized growth": 0.925}
{"compound": "COc1ccc2c(c1)CCC1C2CCC2(C)C1C[C@@H](O)C2O (stereo not given in full)", "normalized growth": 0.91}

Here is the next item to consider.
Dear colleague, I am looking for the recorded normalized growth of the following compound: CC(C1OC(C)(C)C(O)C1O)[C@@H]1CC[C@]2(C)C3=CCC4C(C)(C)C(=O)CC[C@]4(C)C3CC[C@@]12C (stereo not given in full) 0.99

---

- measurement.notes: chemical genetic growth profiling, strain panel (AID 1159580);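 also: tested at 20 µM; growth read once vehicle control cultures reached saturation at 30 °C; 1 = growth at the plate median or of vehicle wells; lower values mean less growth of the strain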
- measurement.parameters: S. cerevisiae deletion strains, growth OD, locus YCL061C, strain MRC1 (second series), hits give low values
In all, about 5,500 compounds went through this assay and about 2,000 (36%) were called active. Not shown: some 18% with an inconclusive outcome. The list shows a part of the results.
measurement.label: normalized growth
Numbers only.

In the examples that follow, each entry is paired with its recorded normalized growth.
{"input.smiles": "COc1cc(/C=C(\\C#N)C(=O)c2ccc(O)c(O)c2)cc(I)c1O", "normalized growth": 1.02}
{"input.smiles": "NNC(=O)c1ccc(O)cc1", "normalized growth": 0.991}
{"input.smiles": "N#C/C(=C\\c1ccc(O)c(O)c1)C(=O)NCCCc1ccccc1", "normalized growth": 1}

Report normalized growth for each item below.
1. N#CC(C#N)=Cc1ccc(O)c(O)c1
2. N#C/C(=C\c1ccc(O)c(O)c1)C(=O)NCCCNC(=O)/C(C#N)=C/c1ccc(O)c(O)c1

[1, 1.01]

---

- measurement.notes: chemical genetic growth profiling, strain panel (AID 1159580);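 also: tested at 20 µM; growth read once vehicle control cultures reached saturation at 30 °C; 1 = growth at the plate median or of vehicle wells; lower values mean less growth of the strain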
- measurement.parameters: S. cerevisiae deletion strains, growth OD, locus YJR075W, strain HOC1, hits give low values
The campaign covered roughly 5,500 compounds. About 2,000 (36%) were called active. About 18% were inconclusive and are not listed. The list shows a part of the results.
// assign rule met if normalized growth falls strictly below 1, else rule not met (ties count as rule not met)

Example entries begin here.
{"compound": "COC(=O)[C@]1(C)CCC[C@]2(C)c3ccc(C(C)C)cc3C(=O)CC12 (stereo partly specified)", "answer.label": "rule met"}
{"compound": "CC12CCC3c4ccc(OCc5ccccc5)cc4CCC3C1C[C@@H](O)[C@@H]2O (stereo partly specified)", "answer.label": "rule met"}
{"compound": "COc1cc2c(cc1O)CC[C@@H]1[C@@H]2CC[C@]2(C)[C@@H](O)CC[C@@H]12", "answer.label": "rule not met"}
{"compound": "NS(=O)(=O)c1cc(C2(O)NC(=O)c3ccccc32)ccc1Cl (stereo unspecified)", "answer.label": "rule not met"}
{"compound": "Cc1cc(C2CCCCC2)n(O)c(=O)c1", "answer.label": "rule met"}
{"compound": "S=c1nccc(-c2ccc(Cl)cc2)[nH]1", "answer.label": "rule met"}

We next turn to a different compound, shown below.
normalized growth under 1? Item: CCOC(=O)C1=C(N)Oc2ccc(Br)cc2C1C(C#N)C(=O)OCC (stereo unspecified) rule met
